Assay: Fluorescence quantum yield
Type: physicochemical
Conditions: pH 3.4, xanthene OH protonated
assay-metric: Φfl (pH 3.4)
Please give the numeric answer without any surrounding text.

Looking for the measured Φfl (pH 3.4) of COc1ccccc1-c1c2ccc(=O)cc-2oc2cc(O)ccc12 , can you help?
0.076

Looking for the measured Φfl (pH 3.4) of COc1ccc(-c2c3ccc(=O)cc-3oc3cc(O)ccc23)c(C)c1 , can you help?
0.010

Looking for the measured Φfl (pH 3.4) of COc1ccc(-c2c3ccc(=O)cc-3oc3cc(O)ccc23)c(OC)c1 , can you help?
0.001

All values here come from patent US7868147B2.
